Each record here notes measured OD450.
biological target: T1, naked peptide MTPTDFTSPI (human); assay: ELISA naked peptide; scFv 1 ug/mL; repII
T1 peptide: MTPTDFTSPI

Binder	OD450, OD
Comparative antibody 3 (Comp-3) scFv, SR_92R (Somovilla-Crespo et al. 2018), His-tagged (scFv) scFv: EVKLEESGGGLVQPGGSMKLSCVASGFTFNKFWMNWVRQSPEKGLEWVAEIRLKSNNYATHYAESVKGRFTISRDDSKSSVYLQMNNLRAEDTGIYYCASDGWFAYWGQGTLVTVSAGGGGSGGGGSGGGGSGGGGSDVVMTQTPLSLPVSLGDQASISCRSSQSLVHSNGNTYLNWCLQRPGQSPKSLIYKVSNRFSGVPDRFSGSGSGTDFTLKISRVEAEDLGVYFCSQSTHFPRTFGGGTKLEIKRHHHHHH	0.04
Comparative antibody 2 (Comp-2) scFv, 243LO326 (VH SEQ ID NO: 51 and VL SEQ ID NO: 52 of WO 2022/195028 A2), His-tagged (scFv) scFv: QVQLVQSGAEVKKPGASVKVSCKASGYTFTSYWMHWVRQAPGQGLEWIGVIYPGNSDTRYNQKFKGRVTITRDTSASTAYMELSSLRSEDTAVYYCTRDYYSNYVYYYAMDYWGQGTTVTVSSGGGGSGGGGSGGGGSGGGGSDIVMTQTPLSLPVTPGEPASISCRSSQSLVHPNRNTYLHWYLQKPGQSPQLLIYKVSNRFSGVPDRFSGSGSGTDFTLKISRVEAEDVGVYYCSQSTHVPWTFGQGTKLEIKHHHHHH	0.03
CCR9_HUM2 scFv (humanized anti-CCR9 scFv, SEQ ID NO: 17 with C-terminal 6xHis tag) (scFv) scFv: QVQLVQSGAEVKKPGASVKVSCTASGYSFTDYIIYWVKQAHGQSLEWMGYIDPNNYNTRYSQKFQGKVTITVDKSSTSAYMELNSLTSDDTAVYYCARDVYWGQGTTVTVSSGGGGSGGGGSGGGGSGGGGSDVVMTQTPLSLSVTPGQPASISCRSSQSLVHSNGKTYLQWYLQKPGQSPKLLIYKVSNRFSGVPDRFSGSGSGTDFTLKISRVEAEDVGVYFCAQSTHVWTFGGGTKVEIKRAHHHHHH	0.04

The values you see were collected from patent US20260232732A1.
